Measured EC50, listed per entry for reference.
tested-system: TLR2 (Homo sapiens, UniProt O60603)
Sequence (O60603 21-784): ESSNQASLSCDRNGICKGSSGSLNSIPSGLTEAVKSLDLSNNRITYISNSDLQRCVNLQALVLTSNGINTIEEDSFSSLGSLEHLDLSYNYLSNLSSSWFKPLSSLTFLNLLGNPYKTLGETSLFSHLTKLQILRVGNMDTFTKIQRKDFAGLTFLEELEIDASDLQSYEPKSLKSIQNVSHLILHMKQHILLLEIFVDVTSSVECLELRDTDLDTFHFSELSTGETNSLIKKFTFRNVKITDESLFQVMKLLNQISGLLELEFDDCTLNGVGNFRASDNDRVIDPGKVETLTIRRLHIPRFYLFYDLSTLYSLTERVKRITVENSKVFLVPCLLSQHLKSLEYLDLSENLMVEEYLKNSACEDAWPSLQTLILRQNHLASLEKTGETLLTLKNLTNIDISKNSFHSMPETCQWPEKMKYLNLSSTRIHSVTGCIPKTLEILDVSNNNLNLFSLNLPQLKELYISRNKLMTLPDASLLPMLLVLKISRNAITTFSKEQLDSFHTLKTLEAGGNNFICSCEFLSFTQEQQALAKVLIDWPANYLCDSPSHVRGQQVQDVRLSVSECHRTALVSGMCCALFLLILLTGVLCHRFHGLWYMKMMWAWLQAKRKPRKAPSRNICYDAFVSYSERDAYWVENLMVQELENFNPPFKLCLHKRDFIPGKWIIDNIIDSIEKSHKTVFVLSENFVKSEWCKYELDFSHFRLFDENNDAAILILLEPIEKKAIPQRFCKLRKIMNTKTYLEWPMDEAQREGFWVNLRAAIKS
assay-summary: TLR2 agonist screening assay, HEK-Blue TLR2 reporter cell line (NF-kB-driven SEAP, absorbance at 600 nm)
Format: cell-based
Design: host or cells: HEK-293 (HEK-Blue TLR2 reporter cell line)
experimental-parameters: HEK-Blue TLR2 reporter cells, agonist mode; average of all runs (Table 4)
parameter-measured: EC50

1. CCCCCCCCCCCNC(=O)N[C@H]1CN(C(c2ccc(C(=O)N3C[C@@H](C(=O)N[C@H]4C[C@@H]4c4ccccc4)[C@H](C(=O)N[C@H]4C[C@@H]4c4ccccc4)C3)cc2)C(F)(F)F)C[C@@H]1OC (single isomer, unassigned) [Compound 231] ... 0.1 to 50 nM
2. CCCCCCCCCC(=O)N[C@@H](COCc1ccc(C(=O)N2C[C@@H](C(=O)N[C@H]3C[C@@H]3c3ccccc3)[C@H](C(=O)N[C@H]3C[C@@H]3c3ccccc3)C2)cc1)C(=O)NCCCCCC ... 351 to 1000 nM
3. O=C1CCCCCCCCCCCCNC(=O)[C@H](CNC(=O)c2ccc(C(=O)N3C[C@@H](C(=O)N[C@H]4C[C@@H]4c4ccccc4)[C@H](C(=O)N[C@H]4C[C@@H]4c4ccccc4)C3)cc2)N1 ... 351 to 1000 nM
4. CCCCCCCCCCCCCCC(=O)NC1CCN(S(=O)(=O)c2ccc(C(=O)N3C[C@@H](C(=O)N[C@H]4C[C@@H]4c4ccccc4)[C@H](C(=O)N[C@H]4C[C@@H]4c4ccccc4)C3)cc2)CC1 ... > 1000 nM

---

tested-system: UniProtKB O60603
assay-summary: TLR2 agonist screening assay, HEK-Blue TLR2 reporter cell line (NF-kB-driven SEAP, absorbance at 600 nm)
Format: cell-based
Set-up: host or cells: HEK-293 (HEK-Blue TLR2 reporter cell line)
experimental-parameters: HEK-Blue TLR2 reporter cells, agonist mode; average of all runs (Table 3)
pEC50: −log10 of the molar value. Counter-ions that a name gives are not always drawn.
Each entry below lists one item and its recorded pEC50 value.
parameter-measured: pEC50

1. CCCCCCCCCCCCCCC(=O)NC1CCN(C(=O)c2ccc(C(=O)N3C[C@@H](C(=O)N[C@H]4C[C@@H]4c4ccccc4)[C@H](C(=O)N[C@H]4C[C@@H]4c4ccccc4)C3)cc2)CC1 ... < 6.00
2. CCCCCCCC(=O)N1CCN(C(=O)c2ccc(C(=O)N3C[C@@H](C(=O)N[C@H]4C[C@@H]4c4ccccc4)[C@H](C(=O)N[C@H]4C[C@@H]4c4ccccc4)C3)cc2)CC1C(=O)NCCCCCC (stereo partly shown) ... 7.30 to 10.00
3. CCCCCCCC(=O)N1CCN(C(=O)c2ccc(C(=O)N3C[C@@H](C(=O)N[C@H]4C[C@@H]4c4ccccc4)[C@H](C(=O)N[C@H]4C[C@@H]4c4ccccc4)C3)cc2)CC1C(=O)NCCc1ccc(F)cc1 (stereo partly shown) ... 7.30 to 10.00
4. CCCCCCCCCCCCCCNC(=O)C1CN(C(=O)c2ccc(C(=O)N3C[C@@H](C(=O)N[C@H]4C[C@@H]4c4ccccc4)[C@H](C(=O)N[C@H]4C[C@@H]4c4ccccc4)C3)cc2)CCN1C (stereo partly shown) [Compound 023, formate] ... 7.30 to 10.00
